test system: Fer (mouse); assay: phosphorylation enrichment, bacterial display (enrichment ratio); higher = better substrate or ligand; peptides without Tyr show the background;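 further: 11-residue human phosphosite peptides and single-mutation variants displayed on the E. coli surface, counted by deep sequencing, each peptide's frequency after selection divided by its frequency in the unselected input library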;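 further: frequency after pTyr selection over input frequency; kinase dosed for 20-30% of maximal phosphorylation in three min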
Class boundaries, taken from values of phosphorylation enrichment, are as follows: lower band: < 0.4; central band: ≥ 0.4 and < 0.7; upper band: ≥ 0.7

| chain | classification |
| --- | --- |
| THQNSYQPGRK [CEFIP_Y210] | lower band |
| FLNSIYKCRDE [ROS1_Y2227_S2229C] | central band |
| NACGLYFKLHN [GATA2_Y376_YF] | central band |
| LFEDRYLLGTS [ASS1_Y87_YF] | upper band |
| YETVKYFNNER [ABCB7_Y345] | upper band |
| LSRDVYEEDSY [RET_Y900] | central band |
| VDTRAYLTSAT [MT-CO1_Y304_F305L] | central band |
| SVCPDYDLCSI [SQSTM1_Y148_V153I] | upper band |
| CTTIHHNFMCN [TP53_Y234_Y234H_YF] | central band |
| YCRITYDIFPF [INTS13_Y67_M66T] | upper band |
| DTMQTYNGNDE [TSPAN7_Y131_A127T] | central band |
| RSYSPCDYQPC [TNS1_Y796_Y796C] | central band |
| DLDPNYVVSSR [CKM_Y125_L127V] | central band |
| RPDSPYSRLHD [DOK2_Y271_P274L] | central band |
| ARTNEYKIIRT [INA_Y87] | central band |
| AEVDTYCRHNF [HLA-DRB1_Y107_A103E_YF] | upper band |
| IGHHAYGDQFR [IDH1_Y135_R132H_YF] | lower band |
| WRRLIYRCQVG [NR2E3_Y81_R76W] | central band |
| YMKEPYIQSRF [HIPK4_Y175_V171M] | central band |
| RKLVDYNSARH [BIN1_Y150_D151N] | central band |
| VHNLDYFKMTT [FGFR3_Y647_K650M_YF] | lower band |
| RFLRGYRQDAY [HLA-A_Y137] | central band |
| ENRKYYKDLKE [PURA_Y156_M157K] | lower band |
| LYIDSYEKDVA [PGM1_Y521] | upper band |
| LTMAPYSSVSV [FAM81A_Y24_L29V] | upper band |
| TFEFKYPEGSS [TGM4_Y440_YF] | central band |
| YQRITYHNWRH [PDE6B_Y556_R552Q] | central band |
| NCLRVYVAGRF [CRB1_Y711_E710V] | central band |
| LFLACYCIGGG [UBD_Y161] | central band |
| VFAPDYIAGVS [NOB1_Y366] | central band |
| TDECEYDELIV [TGM1_Y136_Y134C] | upper band |
| SLRAHYDTPRS [DOK7_Y405] | lower band |
| RVQKRYILDNV [RCN1_Y115_F117L] | lower band |
| PTTKTYFPHFF [HBA1_Y43_D48Y_YF] | upper band |
| VHNLDYFKETT [FGFR3_Y647_K650E_YF] | central band |
| AASHRYDLGGL [QPRT_Y162] | lower band |
| PSQRHYVYYYS [PTEN_Y174_R173H] | upper band |
| SIIKDYFHRGA [GATM_Y203] | central band |
| GVPLGYPIKAP [ELN_Y206] | central band |
| KVVQEYERVII [NPHS2_Y131] | upper band |
| HFVDEYDPTME [KRAS_Y32_I36M] | upper band |
| QGIIIYKAAFF [SLC25A4_Y187_R188K_YF] | upper band |
| PLYSKYWPNHI [GREB1L_Y1560_R1558S] | upper band |
